Recorded values, source the RNAGym collection of RNA variant scans (doi:10.7554/elife.80360).

B1: Hairpin Ribozyme (parent)
chain: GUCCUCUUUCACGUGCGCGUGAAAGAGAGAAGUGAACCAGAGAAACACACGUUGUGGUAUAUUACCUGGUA

Variants of: B1
Assay: self-cleavage, relative activity (ratio to wild type); higher = more cleavage; co-transcriptional

# MUTATION DESCRIPTOR, self-cleavage
data = [
    ("G51A U52G", 0.981),
    ("G32U U62G", 0.182),
    ("C12G C38A", 0.148),
    ("U55G U63G", 0),
    ("U7G G54C", 0.41),
    ("A44G C46A", 0.184),
    ("U5A U7A", 0.105),
    ("U14G C16U", 1.06),
    ("G40U U55G", 0.232),
    ("U7A U70C", 1.04),
    ("G1A A31G", 0.136),
]
